Test system: SK-MEL-28 melanoma
Experiment: NCI-60 one-dose screen, 48 h
Settings: 10 µM unless noted
Description: Growth inhibition of the SK-MEL-28 human tumor cell line is measured as a screen for anti-cancer activity. Cells are grown in 96 well plates and exposed to the test compound for 48 hours. Compounds are tested at a single concentration, which is 10^-5 M for most compounds. The reported endpoint is percent growth (GI% or GIPRCNT), where numbers from 0 - 100% represent growth inhibition, and numbers from -100% - 0 represent cell death. For example, a value of 40 represents 60% growth inhibition. […]
The panel holds about 83,000 compounds, 20% with a hit somewhere; the sample as a whole holds those more often. Active and inactive are the calls of the source. The calls were made as follows: active = growth percent below 10; inactive = the rest.
Returns: one label drawn from active, inactive

Known results for compounds:
O=C(/C=C/C12c3ccccc3C(c3ccccc31)C1C(=O)N(c3ccc(Cl)cc3)C(=O)C12)c1ccccn1 (stereo not given): active
CC(=O)c1ccc2c(c1)CCN2: inactive
O=C1N(c2ccccc2)C(=S)N[C@]12[C@H](c1ccccc1)C1CCCN1[C@]21C(=O)NC2C=CC(Cl)=C[C@H]21 (stereo not given in full): inactive
C#C[C@]1(O)CC[C@H]2[C@@H]3CC=C4c5sc(N=C(N)N)nc5CC[C@]4(C)[C@H]3CC[C@@]21C: active
C[C@@H](C[C@H](CCOCc1cccnc1)c1ccccc1)c1cc2ccccc2o1: inactive
COc1ccc(/C=N/NC(=O)Cn2c(-c3ccc(S(C)(=O)=O)cc3)nc3cc(Cl)ccc32)cc1: inactive
O=c1[nH]c(NCc2nnnn2-c2ccc(Br)cc2)nc2sc3c(c12)CCCC3: inactive
O=C(NC1CCOCC1)c1ccc2c(c1)CN(c1ncc(Cc3cccc(-n4cccn4)c3)s1)CC2: inactive

Query: Please let me know the test result on file for CCOc1cccnc1/C=N/NC(N)=S .
Response: inactive

Query: Please share the test call associated with CNC(=O)c1cc(Oc2ccc3nc(NC(=O)Nc4cc(C(F)(F)F)cc(C(F)(F)F)c4)sc3c2)ccn1 .
Response: active

Query: # lookup: test call for CCOC(=O)c1sc(-c2ccc(OS(=O)(=O)c3ccc(C(C)(C)C)cc3)c(C=O)c2)nc1C
Response: inactive

Query: What call does the record list for Cc1c2c(cn1Cc1ccccc1)CCc1cn[nH]c1-2 ?
Response: inactive

Query: So what was the verdict on C/C(=N\NC(=O)Cn1c(-c2ccc(S(C)(=O)=O)cc2)nc2cc(Cl)ccc21)c1ccc(Cl)cc1 in this test?
Response: inactive

Query: Hi team, can someone confirm the assay call for CCOC(=O)c1nnn(C(Cc2ccccc2Cl)C(=O)OCC)c1C (stereo not given) ?
Response: inactive

Query: Give the logged outcome of this assay for the following compound: Nc1c(C(=O)c2ccc(Cl)s2)sc2nc3c(cc12)CCCC3
Response: inactive

Query: Hi team, can someone confirm the assay call for COc1ccc(-n2nnc(C(=O)NCCc3c[nH]c4ccc(F)cc34)c2C)cc1 ?
Response: inactive

Query: What classification did O=[N+]([O-])c1ccc(-c2cc3c(Nc4ccc(OCc5cccc(Cl)c5)c(Cl)c4)ncnc3s2)cc1 end up with in this test?
Response: inactive

Query: Returns: the outcome recorded for CN1C(=O)CCC(N2C(=O)c3cccc(NCCOCCOCCNC(=O)c4cc5c(o4)C(=O)c4ccccc4C5=O)c3C2=O)C1=O (stereo not given) in this assay.
Response: active

Query: In this assay, the call recorded for CCNCCNc1cc(-c2ccc(Cl)cc2)c(C#N)c2nc3ccccc3n12 was what?
Response: active

Query: Tell me the recorded outcome of this test for CCN(CC)CCNc1ccc(C)c2sc3cc(C)ccc3c(=O)c12 .
Response: inactive

Query: Look up the recorded call for CN1CCN(c2ccc3nc(/N=C/c4ccc5sc(-c6ccc([N+](=O)[O-])cc6)nc5c4)sc3c2)CC1 in this test.
Response: inactive

Query: Answer briefly: the call reported for COc1cc2c(cc1OC)-c1ccc3cc4c(cc3c1N(CCCn1ccnc1)C2)OCO4 in this assay.
Response: inactive
